Values were extracted from ChEMBL document CHEMBL1133715.

# ASSAY SYSTEM: Metabotropic glutamate receptor 3 (Homo sapiens)
# Sequence (Q14832 whole entry): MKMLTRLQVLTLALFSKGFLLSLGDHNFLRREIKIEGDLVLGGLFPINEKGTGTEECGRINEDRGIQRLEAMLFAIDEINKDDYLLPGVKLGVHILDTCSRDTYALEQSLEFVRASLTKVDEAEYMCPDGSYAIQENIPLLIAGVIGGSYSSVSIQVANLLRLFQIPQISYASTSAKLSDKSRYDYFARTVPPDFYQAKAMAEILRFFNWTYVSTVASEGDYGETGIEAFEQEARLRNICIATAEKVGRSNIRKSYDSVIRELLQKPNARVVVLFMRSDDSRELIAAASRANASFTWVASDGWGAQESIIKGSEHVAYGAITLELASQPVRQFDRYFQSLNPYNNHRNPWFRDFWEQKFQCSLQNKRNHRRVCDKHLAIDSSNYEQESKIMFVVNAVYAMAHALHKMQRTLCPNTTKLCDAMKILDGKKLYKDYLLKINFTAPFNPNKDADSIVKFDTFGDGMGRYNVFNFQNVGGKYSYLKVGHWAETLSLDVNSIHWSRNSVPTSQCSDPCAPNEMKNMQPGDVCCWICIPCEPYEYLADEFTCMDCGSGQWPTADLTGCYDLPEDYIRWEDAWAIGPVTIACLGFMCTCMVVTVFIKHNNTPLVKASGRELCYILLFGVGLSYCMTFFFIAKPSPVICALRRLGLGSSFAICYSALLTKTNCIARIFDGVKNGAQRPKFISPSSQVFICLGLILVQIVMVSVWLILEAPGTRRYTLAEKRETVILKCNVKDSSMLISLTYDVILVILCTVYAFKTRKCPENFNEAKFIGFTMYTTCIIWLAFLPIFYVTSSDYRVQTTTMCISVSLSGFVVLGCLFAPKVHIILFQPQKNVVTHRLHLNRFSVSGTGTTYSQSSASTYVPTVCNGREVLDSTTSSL
# ASSAY SUMMARY: Agonist potency against cloned Metabotropic glutamate receptor 3
READOUT TYPE: EC50 (µM)
# number only, unit µM dropped from output

Ask: Identify EC50 associated with the compound O=C(O)CC[C@H](CP(=O)(O)C[C@H](CCC(=O)O)C(=O)O)C(=O)O
Result: 33
